measurement-kind: melting point

Recorded melting point, per entry:
{"molecule": "CCC1CC(=O)N(Cc2ccc(C(=O)NC3CCCC3)cc2)N=C1c1ccc(OC)c(OC2CCCC2)c1 (stereo not drawn)", "recorded-result": "73 °C"}
{"molecule": "CN1CC(=O)Nc2ccc(C#N)cc2C1=O", "recorded-result": "256 to 258 °C"}

Okay, next one:
Challenge: Requested read-out: melting point. Entry: O=C(Cl)c1ccc(C#Cc2ccccc2C(=O)Cl)cc1
Response given: 79 to 85 °C

---

melting point overview

// known answers, use as guide
{"compound": "CSC(=NC#N)N[C@@H]1c2cc(S(C)(=O)=O)ccc2OC(C)(C)[C@H]1O (relative stereo)", "melting point": "219 to 220 °C"}
{"compound": "CC(=O)Nc1cccc(-c2ccnc3c(C(=O)c4ccco4)cnn23)c1", "melting point": "195 to 196 °C"}
{"compound": "COc1ccc(C2=NN(CCCCCCBr)C(=O)[C@H]3CC=CC[C@@H]23)cc1OC (relative stereo)", "melting point": "55 to 56 °C"}
{"compound": "O=C(O)CSC(c1ccccc1)(c1ccccc1)c1ccccc1", "melting point": "158 to 160 °C"}
{"compound": "CN1C(=O)CCC2(C)C3CCC4(C)C(Oc5ccc([N+](=O)[O-])cc5)CCC4C3CCC12 (centres undefined)", "melting point": "183 to 184 °C"}

# context switch: different compound, same melting point
Challenge: Consider the compound COC(=O)CCC(=O)c1ccc(C)cc1OCC1CO1 (centres undefined) and give its measured melting point.
Response given: 61.5 to 63 °C
